# Subject Of Test: human OX1 receptor (Homo sapiens, UniProt O43613)
# Sequence (O43613 whole entry): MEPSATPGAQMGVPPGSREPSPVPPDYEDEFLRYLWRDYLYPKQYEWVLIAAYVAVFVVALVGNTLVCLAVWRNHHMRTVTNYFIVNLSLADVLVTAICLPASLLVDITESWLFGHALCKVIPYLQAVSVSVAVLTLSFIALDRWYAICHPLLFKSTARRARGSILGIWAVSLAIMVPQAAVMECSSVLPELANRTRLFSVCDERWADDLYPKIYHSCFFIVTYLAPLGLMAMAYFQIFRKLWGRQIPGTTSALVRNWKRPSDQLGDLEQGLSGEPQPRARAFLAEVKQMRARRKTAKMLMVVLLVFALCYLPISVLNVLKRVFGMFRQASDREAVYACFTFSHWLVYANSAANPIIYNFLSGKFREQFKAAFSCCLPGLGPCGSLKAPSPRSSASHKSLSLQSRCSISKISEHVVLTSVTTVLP
# Protocol Summary: IPone accumulation assay, CHO cells expressing OX1 (antagonism of orexin A)
# Assay type: cell-based
# Cond: IPone accumulation, CHO human OX1, orexin A EC80 challenge (~20 nM); read-out: fpKb average OX1 (converted)
Observable: Kb (µM)

• COc1cc(F)c(CN2C(=O)N(c3cnc(OC)c(S(C)(=O)=O)c3)CCc3c(F)cccc32)c(F)c1 = 0.0158
• Cc1ncc(N2CCc3c(F)cccc3N(Cc3c(F)cc(Br)cc3F)C2=O)cc1OC(F)F = 0.02
• COc1ncc(N2CCc3c(F)cccc3N(Cc3ccc(Br)cc3F)C2=O)cc1C(C)(F)F = 0.0251
• COc1ncc(N2CCc3c(F)cccc3N(Cc3c(C)cc(F)cc3F)C2=O)cc1S(C)(=O)=O = 0.01
• Cc1ncc(C2CCc3c(F)cccc3N(Cc3c(F)cc(Br)cc3F)C2=O)cc1C(C)(F)F (single isomer, unassigned) [Example 35] = 0.0631
• COCc1cc(F)c(CN2C(=O)N(c3cnc(OC)c(C(C)(F)F)c3)CCc3c(F)cccc32)c(F)c1 = 0.00794
